# measurement-target: GDP-bound KRAS wild-type protein (Homo sapiens, UniProt P01116)
# Sequence (P01116 whole entry): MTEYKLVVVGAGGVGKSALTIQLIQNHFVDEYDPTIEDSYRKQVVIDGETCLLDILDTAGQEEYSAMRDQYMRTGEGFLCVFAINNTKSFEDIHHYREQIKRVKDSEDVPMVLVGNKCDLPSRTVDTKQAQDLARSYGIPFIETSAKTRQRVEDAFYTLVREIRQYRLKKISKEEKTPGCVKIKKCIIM
# assay-method-text: Binding to KRAS by surface plasmon resonance (SPR), Single Cycle Kinetics
# setup-conditions: SPR, Single Cycle Kinetics, GDP-bound KRAS wild-type protein; read-out: KRAS KD
reported-endpoint: pKd
# pKd: negative log10 of molar concentration; output just the value

structure-as-smiles	pKd
CCO[C@@H]1C[C@H]2C(=O)NC3(CC(C)(C)C3)C(=O)N(C)[C@@H](C(CC)CC)C(=O)N(C)[C@H](C(=O)N(C)C)CC(=O)N(C)[C@@H](C(C)C)C(=O)N[C@@H]([C@@H](C)CC)C(=O)N(C)CC(=O)N(C)[C@H]3C/C=C\CCN(C3=O)[C@@H](Cc3ccc(C(F)(F)F)cc3)C(=O)N(C)CC(=O)N[C@@H](CCc3ccc(Cl)c(Cl)c3)C(=O)N2C1	8.85

# evaluate next
*Q* Give the reported pKd for this molecule. `CCO[C@@H]1C[C@H]2C(=O)NC3(CC(C)(C)C3)C(=O)N(C)[C@@H](C(CC)CC)C(=O)N(C)[C@H](C(=O)N(C)C)CC(=O)N(C)[C@@H](C(C)C)C(=O)N[C@@H]([C@@H](C)CC)C(=O)N(C)CC(=O)N(C)[C@H]3C/C=C\CCN(C3=O)[C@@H](CC3CCC(F)(F)CC3)C(=O)N(C)CC(=O)N[C@@H](CCc3cc(F)c(C(F)(F)F)c(F)c3)C(=O)N2C1`
*A* 8.80

----------
# measurement-target: GDP-bound KRAS wild-type protein (Homo sapiens)
# assay-method-text: Binding to KRAS by surface plasmon resonance (SPR), Single Cycle Kinetics
# setup-conditions: SPR Single Cycle Kinetics, GDP-bound KRAS wild-type protein, 1:1 binding model; read-out: KRAS KD
Where a SMILES comes first, the peptide text is derived from it. Bridges are numbered along the chain shown (N, C = ends). [ ]: non-standard residue; d: D form. The star is where a group is joined. hPhe(3-Cl-4-CF3) = N[C@@H](CCc1ccc(C(F)(F)F)c(Cl)c1)C(=O)O; NPrPhe(4-CF3) = CCCN[C@@H](Cc1ccc(C(F)(F)F)cc1)C(=O)O; NMeGly(cPent) = CN[C@H](C(=O)O)C1CCCC1; Hyp = O=C(O)[C@@H]1C[C@@H](O)CN1; NMeD = CN[C@@H](CC(=O)O)C(=O)O; NMeL = CN[C@@H](CC(C)C)C(=O)O; NMeAbu = CC[C@H](NC)C(=O)O; Morpholide = C1CN(*)CCO1; NMeA = CN[C@@H](C)C(=O)O; Ac5c = NC1(C(=O)O)CCCC1; Aze = O=C(O)[C@@H]1CCN1; Sar = CNCC(=O)O
Parameter: Kd. Scope: all listed entries.
Respond numerically; units are nM and should not be typed.

*Q* Give the reported Kd for this compound. `CCC[C@H]1C(=O)N[C@@H](CC(C)C)C(=O)N(CC)CC(=O)N(C)[C@H]2C/C=C\CCN(C2=O)[C@@H](Cc2ccc(C)cc2)C(=O)N(C)CC(=O)N[C@@H](CCc2ccc(C(F)(F)F)c(Cl)c2)C(=O)N2C[C@H](OCC)C[C@H]2C(=O)NC2(CC(C)(C)C2)C(=O)N(C)[C@@H](C2CCCC2)C(=O)N(C)[C@H](C(=O)N(C)C)CC(=O)N1C`
*A* 4.6

*Q* Give the reported Kd for this compound. CCCN1C(=O)[C@@H]2CCN2C(=O)[C@H](C)N(C)C(=O)[C@H]([C@@H](C)CC)NC(=O)[C@H](CC)N(C)C(=O)C[C@@H](C(=O)N2CCOCC2)N(C)C(=O)[C@H](C2CCCC2)N(C)C(=O)C2(CCCC2)NC(=O)[C@@H]2CCCN2C(=O)[C@H](CCc2ccc(C(F)(F)F)c(Cl)c2)NC(=O)CN(C)C(=O)[C@@H]1Cc1ccc(C(F)(F)F)cc1 [PP0194] ([NMeAbu]I[NMeA][Aze][NPrPhe(4-CF3)][Sar][hPhe(3-Cl-4-CF3)]P[Ac5c][NMeGly(cPent)][NMeD]-Morpholide; lactam N-11)
*A* 0.09

*Q* Give the reported Kd for this compound. CCCN1C(=O)CN(C)C(=O)[C@@H]2CCN2C(=O)[C@H]([C@@H](C)CC)NC(=O)[C@H](CC(C)C)N(C)C(=O)C[C@@H](C(=O)N2CCOCC2)N(C)C(=O)[C@H](C2CCCC2)N(C)C(=O)C2(CCCC2)NC(=O)[C@@H]2C[C@@H](OCC)CN2C(=O)[C@H](CCc2ccc(C(F)(F)F)c(Cl)c2)NC(=O)CN(C)C(=O)[C@@H]1Cc1ccc(C(F)(F)F)cc1 [PP0310] ([NMeL]I[Aze][Sar][NPrPhe(4-CF3)][Sar][hPhe(3-Cl-4-CF3)][Hyp](Et)[Ac5c][NMeGly(cPent)][NMeD]-Morpholide; lactam N-11)
*A* 0.45
